Hello, the source for this data is patent US20260297080A1, in case you need it.

Catalogue of IC50 readings, one per entry.
# Assay target: CDK2/Cyclin E1 (Homo sapiens)
# Assay info: CDK2/Cyclin E1 Biochemical Assay (TR-FRET), 0.060 mM ATP
# Assay conditions: 0.15 μM Rb (Ser780)-biotin substrate, pH7.0, 60 min preincubation, 120 min reaction, room temperature
Give your result in nM as a bare value.

Answered cases to consult:
CN1Cc2c(ccc(Nc3cc([C@@H]4CC[C@H](OC(=O)N[C@H]5CC[C@@](C)(O)CC5)C4)[nH]n3)c2F)S1(=O)=O (relative stereo); 7.4
CC(C)NC(=O)O[C@H]1CC[C@@H](c2cc(Nc3ccc4c(c3F)CNS4(=O)=O)n[nH]2)C1 (single isomer, unassigned) [Example 9a]; 4.5
O=C(NCCC(F)(F)F)O[C@H]1CC[C@@H](c2cc(Nc3ccc4c(c3F)CNS4(=O)=O)n[nH]2)C1 (single isomer, unassigned) [Example 154a]; 2.3
CC1(NC(=O)O[C@H]2CC[C@@H](c3cc(Nc4ccc5c(c4)CCS(=O)(=O)N5)n[nH]3)C2)CC1 (single isomer, unassigned) [Example 249b]; 0.6
C[C@H]1[C@H](O)CN1C(=O)O[C@H]1CC[C@@H](c2cc(Nc3ccc4c(c3)CS(=O)(=O)N4C)n[nH]2)C1 (relative stereo); 11

In: IC50 for [2H]C([2H])([2H])N1Cc2c(ccc(Nc3cc([C@@H]4CC[C@H](OC(=O)NC(C)C)C4)[nH]n3)c2F)S1(=O)=O (single isomer, unassigned) [Example 129a] ?
Out: 4.7

In: IC50 for [2H]C([2H])([2H])N1Cc2c(ccc(Nc3cc([C@@H]4CC[C@H](OC(=O)NC5(C)CC5)C4)[nH]n3)c2F)S1(=O)=O (single isomer, unassigned) [Example 132a] ?
Out: 2.2
